Biological target: dog IgG
Assay: ELISA, coated antigen, E. coli supernatant
reportedProperty: absorbance at 450 nm

INPUT: Quote absorbance at 450 nm reported for SVG19 (VHH, not shown: large carriers) VHH: QVQLQQSGGGLVQPGGSLRLSCAASGFTFSSYAMSWVRQAPGKGLEWVSAINSGGGSTSYADSVKGRFTISRDNAKNTLYLQMNSLKPEDTAVYYCAKDFDPWGVGTGGYDYWGQGTQVTVSS please.
OUTPUT: 1.02 A450

INPUT: Quote absorbance at 450 nm reported for SVG23 (VHH, not shown: large carriers) VHH: QVQLQESGGGLVQAGGSLRLSCAASGRAFGSYTMNWFRQAPGKERDFVAGIMSSGMNTWYADSVKGRFTISRDNAKNTVYLQMNSLKPEDTAVYYCASRPRSTMTSGRYLYDYWGQGTQVTVSS please.
OUTPUT: 1.74 A450

INPUT: Quote absorbance at 450 nm reported for SVG18 (VHH, not shown: large carriers) VHH: QVQLQQSGGGLVQPGGSLRLSCAASGFTFSSYAMSWVRQAPGKGLEWVSAINSGGDIISYADSVKGRFTISRDNAKNTLYLQMNSLKPEDTAVYYCAKSPIVRTYGGYDYWGQGTQVTVSS please.
OUTPUT: 1 A450

INPUT: Quote absorbance at 450 nm reported for SVG13 (VHH) VHH: QVQLQESGGGLVQPGGSLRLSCEASGFTFDDYGMSWVRQAPGKGLEWVSSLTPNGGSTYYADSVKGRFTISRDNAKNTLYLQMNSLKPEDTALYYCAKNSYYGAMDYWGKGTLVTVSS please.
OUTPUT: 0.693 A450
